Tested on: UACC-62 melanoma
RUN_DESCRIPTION: NCI-60 one-dose screen, 48 h
REPORTED_CONDITIONS: 10 µM unless noted
This is part of a sample that, as a whole, favours compounds with a hit. Of some 83,000 tested, about 20% had one in any assay. Active and inactive are the calls of the source. The calls were made as follows: active = growth percent below 10; inactive = the rest.
Hi! Could you answer with just one of these? TRUE for active, FALSE for inactive

Reference set (5 entries):
COC1C(O)CC(OC2CC(OC3CC(O[C@@H]4C(=O)c5c(cc6cc(OC7CC(OC8CC(O)C(O)C(C)O8)C(O)C(C)O7)c(C)c(O)c6c5O)CC4[C@H](OC)C(=O)C(C)=O)OC(C)C3O)OC(C)C2O)OC1C (stereo partly specified) | TRUE
Cn1c(=O)c2[nH]c(SC/C(=N/O)c3ccc(Br)cc3)nc2n(C)c1=O | TRUE
CCCOC(=O)Nc1nc2ccc(SCC)cc2s1 | FALSE
N=C(N)c1ccc(-c2ccc(-c3ccccc3)o2)o1 | FALSE
O=C(Nc1ccc(Nc2ccncc2)cc1)c1ccc(Nc2ccnc3ccc([N+](=O)[O-])cc23)cc1 | FALSE

**Q:** I would be grateful if you could indicate the recorded call for Cc1nc2sc(C(=O)Nc3cccc4ccccc34)c(N)c2cc1C(=O)c1ccccc1 .
**A:** FALSE

**Q:** Test call for this molecule, please: CC(=O)Nc1sc2c(c1-c1nc3ccccc3s1)CNC2
**A:** FALSE

**Q:** Which outcome did this test record for the molecule COCCn1cc(-c2csc(-c3c[nH]c4ccc(F)cc34)n2)c2cccnc21 ?
**A:** FALSE

**Q:** Test call for this molecule, please: COc1cc([C@@H](CCO)C[C@H](C)c2ccc3ccccc3c2)cc(OC)c1OC
**A:** FALSE

**Q:** What did this assay record as the result for O=C(Oc1ccc2c(c1)sc1nc(-c3ccccc3)[nH]c(=O)c12)C(F)(F)F ?
**A:** FALSE

**Q:** Tell me the assay call for C=C[C@@]1(C)CC(=O)[C@@H](C(C)(C)c2cn(C)c3ccc(Br)cc23)C[C@@H]1O[Si](C)(C)C(C)(C)C please.
**A:** FALSE

**Q:** GET /call?item= Nc1cccc(-c2ccc(COc3ccc(CC4SC(=O)NC4=O)cc3)cc2)c1 (stereo unspecified) returns the recorded outcome of this test.
**A:** FALSE

**Q:** How was CCOC(=O)c1nnn(-c2no[n+]([O-])c2-c2ccc(OC)cc2)c1COc1cccc2cccnc12 classified in this test?
**A:** TRUE

**Q:** Each molecule tested received a call. Report the one for C=C1SC(=Nc2ccccc2Cl)N(C(=O)c2sc3ccccc3c2Cl)C1(C)C .
**A:** FALSE

**Q:** Hey, what did the test say about c1ccc(-c2c(-c3ccccc3)[n+](Cc3ccc4ccccc4c3)cn2Cc2ccc3ccccc3c2)cc1 ?
**A:** TRUE

**Q:** For this molecule, state the assay outcome: CS(=O)(=O)Nc1cc(-c2ccc3ncnc(Nc4ccc5c(cnn5Cc5ccccc5F)c4)c3c2)cnc1Cl
**A:** FALSE

**Q:** Name the outcome recorded for COc1ccc(Oc2ccc(/C=C/C(=O)c3cc4ccccc4oc3=O)cc2)cc1 in the assay.
**A:** FALSE

---

System: LOX IMVI melanoma
RUN_DESCRIPTION: NCI-60 one-dose screen, 48 h
REPORTED_CONDITIONS: 10 µM unless noted
About 83,000 compounds went through this panel and 20% of them were active in at least one assay; those are over-represented in the sample as a whole. The source made the active and inactive calls. How the source made its calls: active means growth percent below 10; inactive means the rest.
Write down one outcome, taken from yes (1) = active, no (0) = inactive

Check out these entries, answers already filled in.
Nc1cc(C(=O)O)cc(-n2c(O)c(C=C3N=c4ccccc4=N3)sc2=S)c1 | no (0)
CCN(CC)CCOc1ccc(/C(=C(\C)Cc2ccc(OC)cc2)c2ccc(OC(=O)NCc3ccccc3)cc2)cc1 | no (0)
COc1ccc2cc(C(=O)N3CCC([C@@H](C)C(=O)NCc4ccc5c(c4)OCO5)CC3)[nH]c2c1 | no (0)
COC(=O)/C(CCC=C(C)C)=C1\[C@@H](OC(C)=O)C[C@@]2(C)[C@H]1C/C(=N/O)[C@H]1[C@@]3(C)CC/C(=N\O)[C@@H](C)[C@@H]3CC[C@@]12C | no (0)
COc1ccc(/C=C2\CN(C(=O)C(Cl)Cl)C/C(=C\c3ccc(OC)c(OC)c3)C2=O)cc1OC | yes (1)

**Q:** Please state the recorded outcome for this compound: CCOC(=O)C(CCN(C)C)c1ccccc1 (centres undefined)
**A:** no (0)

---

Test system: MDA-MB-231 breast
RUN_DESCRIPTION: NCI-60 one-dose screen, 48 h (100 = growth as untreated, 0 = no growth, -100 = all killed)
REPORTED_CONDITIONS: 10 µM unless noted
The panel holds about 83,000 compounds, 20% with a hit somewhere; the sample as a whole holds those more often.
ASSAY_ENDPOINT: growth (%)
Express the result in % but write the number alone.

Result for CCCCCc1ccc(S(=O)(=O)Nc2cc(-c3csc(NC(C)=O)n3)ccc2N2CCN(C)CC2)cc1 , tested on MDA-MB-231 breast, growth: 51.8

---

Tested on: SW-620 colon
RUN_DESCRIPTION: NCI-60 one-dose screen, 48 h (100 = growth as untreated, 0 = no growth, -100 = all killed)
REPORTED_CONDITIONS: 10 µM unless noted
The panel holds about 83,000 compounds, 20% with a hit somewhere; the sample as a whole holds those more often. Active and inactive are the calls of the source. The calls were made as follows: active = growth percent below 10; inactive = the rest.
ASSAY_ENDPOINT: growth

Below, 5 molecules whose answers are already recorded.
CC/C(=C(\c1ccc(Cl)cc1)c1ccc(OCCN2CCCCC2)cc1)c1ccc(O)cc1 | -35.7% (active)
COc1c2c(cc3c1C(=O)N[C@@H]1[C@@H](O)[C@@H](O)[C@H](O)C[C@@H]31)OCCO2 | 104% (inactive)
CN(C)c1ccc(/C=N\NC(=O)c2ccc3nc(-c4ccc(Cl)cc4)[nH]c3c2)cc1 | 46.3% (inactive)
NCCCNc1nc2ccccc2c2c(=O)c3cc(Cl)ccc3sc12 | -90.6% (active)
Cn1cc(-c2csc(-c3cn(CCCN4CCOCC4)c4ccc(F)cc34)n2)c2cccnc21 | 61% (inactive)

Consider now this further molecule.
Form: molecule = COc1ccc(C(c2cc(OC)c(OC)c(OC)c2)N2CCCCC2)cc1 (stereo unspecified) ; growth = 14.5% (inactive)

---

Tested on: SW-620 colon
RUN_DESCRIPTION: NCI-60 one-dose screen, 48 h (100 = growth as untreated, 0 = no growth, -100 = all killed)
REPORTED_CONDITIONS: 10 µM unless noted
This is part of a sample that, as a whole, favours compounds with a hit. Of some 83,000 tested, about 20% had one in any assay.
Record met whenever growth is at 90% or higher; record not met when lower.

O=S(O)c1cc(Cl)cc(Cl)c1OCc1ccccc1 | met
N#Cc1c(-c2ccccc2)nc2c(c(-c3ccccc3)nn2-c2ccccc2)c1-c1ccc(N2CCCCC2)cc1 | met
C=CCn1cc(-c2nc3ccccc3s2)c2cc(-c3ccc4c5c(cccc35)C(=O)N(CCO)C4=O)ccc21 | met

**Q:** Reported growth at or above 90%? CS(=O)(=O)Nc1cc(-c2ccc3ncnc(Nc4ccc(F)c(Cl)c4)c3c2)ccc1Cl
**A:** not met

---

Test system: SF-295 CNS
RUN_DESCRIPTION: NCI-60 one-dose screen, 48 h
REPORTED_CONDITIONS: 10 µM unless noted
Description: Cells are grown in 96 well plates and exposed to the test compound for 48 hours. Compounds are tested at a single concentration, which is 10^-5 M for most compounds. The reported endpoint is percent growth (GI% or GIPRCNT), where numbers from 0 - 100% represent growth inhibition, and numbers from -100% - 0 represent cell death. For example, a value of 40 represents 60% growth inhibition. A value of 0 means no net growth occurred over the course of the experiment. […]
About 83,000 compounds went through this panel and 20% of them were active in at least one assay; those are over-represented in the sample as a whole. The source made the active and inactive calls. Rule for the calls: active = growth percent below 10; inactive = the rest.
Mark one answer only. Choices: true for active, false for inactive

C=C(C)[C@@H]1CC[C@]2(COC3CCCCO3)CC[C@]3(C)[C@H](CC[C@@H]4[C@@]5(C)C=C(C=O)C(=O)C(C)(C)[C@@H]5CC[C@]43C)[C@@H]12 (some centres undefined) | true
C#CCOc1ccc2nc(CCl)c(Cl)c(Nc3cccc(C(F)(F)F)c3)c2c1 | false

**Q:** Given Nc1ncnc2c1N=C(c1ccc(F)cc1)CC(c1cccc(Nc3ccnc4cc(Cl)ccc34)c1)N2 (centres undefined) , state the outcome it received in this test.
**A:** false

**Q:** Recorded call for COCCn1cc(-c2csc(-c3c[nH]c4ccc(F)cc34)n2)c2cccnc21 ?
**A:** false

**Q:** Hi team, can someone confirm the assay call for CCCC(O)Cn1ncc(C(=O)OCC)c1NC(=O)NCc1cccc(C(F)(F)F)c1 (centres undefined) ?
**A:** false
